Literature-derived IC50 for Hepatocyte growth factor receptor (Homo sapiens, UniProt P08581) follows.

{"mol": "COc1cc2c(Oc3ccc(NC(=O)C4(C(=O)Nc5ccc(F)cc5)CC4)cc3)ccnc2cc1N1CCNC1=O", "IC50": "< 100 nM"}
{"mol": "CC(C)c1cc(NC(=O)Nc2ccc(Oc3ccnc(-c4cnn(C)c4)c3)c(F)c2)n(-c2cccc(C#N)c2)n1", "IC50": "< 100 nM"}
{"mol": "CC(C)N1Cc2c(ccc(F)c2C#N)O[C@@H](C)CNC(=O)c2c(N)nn3ccc1nc23", "IC50": "3.8 nM"}
{"mol": "C[C@@H]1CN(C(=O)c2cccc(-c3cnc(N)c(-c4nc5ccccc5s4)c3)c2)C[C@H](C)N1C", "IC50": "100 to 1000 nM"}
{"mol": "CCOC(=O)Nc1cccc(Cn2nc(-c3cccc(OCCCCN)c3)ccc2=O)c1", "IC50": "10 to 1000 nM"}
{"mol": "Cn1cc(-c2cnc3ccc(Cc4nnc5sc(C6CC6)nn45)cc3c2)cn1", "IC50": "< 100 nM"}
{"mol": "CCN(CC)C(=O)c1ccc(-c2cnc(N)c(-c3nc4ccccc4s3)c2)cc1", "IC50": "> 20000 nM"}
{"mol": "COc1cc2nccc(Oc3c(F)cc(NC(=O)c4ccncc4OC)cc3F)c2cc1O[C@@H](C)CO", "IC50": "≤ 100 nM"}
{"mol": "Cn1ncc2ccc(-c3n[nH]c4c3Cc3sc(-c5ccc(CN6CCNC(=O)C6)cc5)cc3-4)cc21", "IC50": "> 1000 nM"}
{"mol": "CCN1Cc2c(C#N)cccc2O[C@@H](C)CNC(=O)c2cnn3ccc1nc23", "IC50": "36.5 nM"}
{"mol": "CCn1cnc2ccc(Sc3nnc4ccc(-c5cnn(C)c5)nn34)cc21", "IC50": "< 100 nM"}
{"mol": "Cc1c(C(=O)Nc2ccc(Oc3ccnc4cc(OC(C)(C)CO)ccc34)c(F)c2)c(=O)n(-c2ccccc2)n1C", "IC50": "27 nM"}
{"mol": "Nc1ncc(-c2cnn([C@@H]3CN[C@@H](C(=O)N4CCCC4)C3)c2)cc1-c1nc2ccccc2s1", "IC50": "100 to 1000 nM"}
{"mol": "CCOC(=O)Nc1cccc(Cn2nc(-c3cccc(OCCN4CCOCC4)c3)ccc2=O)c1", "IC50": "10 to 1000 nM"}
{"mol": "Nc1ncc(-c2cnn(C3CCOCC3)c2)cc1-c1nc2ccccc2s1", "IC50": "100 to 1000 nM"}
{"mol": "N#CCCCOc1cc2nccc(Oc3ccc(NC(=O)c4cccn(-c5ccc(F)cc5)c4=O)c(Cl)c3)c2c2c1OCCO2", "IC50": "≤ 50 nM"}

###

Literature-derived IC50 for Hepatocyte growth factor receptor (Homo sapiens, UniProt P08581) follows.
property-name: IC50

{"compound": "c1cc(CN2CCOCC2)ncc1-c1cc2c(s1)Cc1c(-c3ccc4cn[nH]c4c3)n[nH]c1-2", "result": "> 1000 nM"}
{"compound": "CNCCCCOC(=O)Nc1cccc(Cn2nc(-c3cc(F)cc(F)c3)ccc2=O)c1", "result": "10 to 1000 nM"}
{"compound": "COc1cc2nccc(Oc3ccc(NC(=O)c4cn(CC(C)C)c(=O)n(-c5ccc(F)cc5)c4=O)cc3F)c2c2c1OCCO2", "result": "≤ 50 nM"}
{"compound": "CP(C)(=O)c1ccc(Nc2cnc3nnn(Cc4ccc5ncccc5c4)c3n2)cc1F", "result": "< 10 nM"}
{"compound": "CCCOc1ccncc1C(=O)Nc1ccc(Oc2ccnc3cc(OCCNC)c(OC)cc23)c(F)c1F", "result": "≤ 100 nM"}
{"compound": "CCc1ccc2nnc(Cc3c(F)cc4ncc(Br)cc4c3F)n2n1", "result": "100 to 1000 nM"}
{"compound": "Cc1ccc2nnc(Cc3ccc4ncc(-c5cnn(CC6CN(C(=O)OC(C)(C)C)C6)c5)cc4c3)n2n1", "result": "< 100 nM"}
{"compound": "O=C(Nc1cn2nc(Sc3nnc4ccc(-c5cnn(CCO)c5)cn34)ccc2n1)C1CC1", "result": "< 30 nM"}
{"compound": "O=C(c1ccc(-c2cnc3c(c2)N(Cc2cc(Cl)ccc2C(F)(F)F)CCN3)cc1)N1CCC(N2CCCC2)CC1", "result": "1000 to 10000 nM"}
{"compound": "CCOc1ccn(-c2ccc(F)cc2)c(=O)c1C(=O)Nc1ccc(Oc2ccnn3ccc(-c4cccc(C(=O)N5CCOCC5)c4)c23)c(F)c1", "result": "< 40 nM"}
{"compound": "CNc1ccnc2ccc(Sc3nnc4ccc(-c5cnn(C)c5)nn34)cc12", "result": "1000 to 10000 nM"}
{"compound": "O=C(Cc1ccc2nsnc2c1)N1CCC(c2ccc(F)cc2)=N1", "result": "610 nM"}
{"compound": "Nc1ncc(-c2cn[nH]c2)cc1-c1nc2ccccc2s1", "result": "1000 to 20000 nM"}
{"compound": "NC1(COc2ccc3c(Oc4c(F)cc(NC(=O)c5cnccc5OC5CC5)cc4F)ccnc3c2)CC1", "result": "≤ 100 nM"}
{"compound": "CCOc1ccncc1C(=O)Nc1cc(F)c(Oc2ccnc3cc(OCCNC)c(OC)cc23)c(F)c1F", "result": "≤ 100 nM"}
{"compound": "Cc1cc(-c2ccc3nnc(C(F)(F)c4cc5cn(C)nc5cc4F)n3n2)ccn1", "result": "113 nM"}
{"compound": "COc1ccn(-c2ccc(F)cc2)c(=O)c1C(=O)Nc1ccc(Oc2ccnc3cc(OCCCN4CCCCC4)c4c(c23)OCCO4)cc1Cl", "result": "≤ 50 nM"}
{"compound": "C[C@H](O)CNC(=O)Nc1cccc(CN2N=C(c3ccc(Cl)cc3)CSC2=O)c1", "result": "10 to 1000 nM"}
{"compound": "CN(C)CC1CCN(C(=O)Nc2cc(Oc3ccc(NC(=O)c4cc5ncsc5n(-c5ccc(F)cc5)c4=O)cc3F)ccn2)CC1", "result": "10 to 100 nM"}
{"compound": "CCOC(=O)Nc1cccc(Cn2nc(-c3cccc(CNC(=O)CO)c3)ccc2=O)c1", "result": "10 to 1000 nM"}
{"compound": "O=S(=O)(NC1CC1)c1ccc(-c2ccc3nnc(Cc4ccc5ncccc5c4)n3n2)cc1", "result": "< 100 nM"}
{"compound": "C[C@@H](Oc1c(N)ncc2c1ccn2S(=O)(=O)c1ccccc1)c1c(Cl)ccc(F)c1Cl", "result": "5000 to 20000 nM"}
{"compound": "C[C@H]1COCCN1Cc1ccc(-c2cc3c(s2)Cc2c(-c4ccc5cnn(C)c5c4)n[nH]c2-3)cc1", "result": "> 1000 nM"}
{"compound": "CNc1ccc2nnc(Cc3ccc4ncc(-c5cnn(C)c5)cc4c3)n2n1", "result": "< 100 nM"}
{"compound": "COc1cc2c(Oc3ccc(NC(=O)c4cc5c(n(-c6ccc(F)cc6)c4=O)N(C)CCO5)cc3F)ccnc2cc1OCCCN1CCOCC1", "result": "100 to 1000 nM"}
{"compound": "CNS(=O)(=O)c1ccc(-c2ccc3nnc(Cc4ccc5ncccc5c4)n3n2)cc1", "result": "100 to 1000 nM"}
{"compound": "Nc1ncc(-c2cnn([C@@H]3CN[C@H](C(=O)N4CCOCC4)C3)c2)cc1-c1cc2c(Cl)ccc(F)c2cn1", "result": "≤ 100 nM"}
{"compound": "CN1CCN(c2ccc(-c3cnc4c(c3)C(O)CCN4)cn2)CC1 (stereo not shown)", "result": "10000 to 100000 nM"}
{"compound": "Nc1ncc(-c2ccc(OCC(=O)NC3CCCCC3O)cc2)cc1-c1nc2ccccc2s1 (stereo not shown)", "result": "1000 to 20000 nM"}
{"compound": "CCOC(=O)Nc1cccc(Cn2nc(-c3ccc(CC(=O)NCCCCNC(=O)OC(C)(C)C)cc3)ccc2=O)c1", "result": "10 to 1000 nM"}
{"compound": "CC(c1cc(F)c(F)cc1F)N1C(=O)CNc2ncc(I)cc21 (stereo not shown)", "result": "> 100000 nM"}

###

Literature-derived IC50 for UniProt:P08581 follows.
property-name: IC50

{"mol": "Cc1ccc(-c2ccn3nccc(Oc4ccc(NC(=O)C5(C(=O)Nc6ccc(F)cc6)CC5)cc4F)c23)cc1N", "property-name": "IC50", "result": "< 40 nM"}
{"mol": "CCOc1ccn(-c2ccc(F)cc2)c(=O)c1C(=O)Nc1ccc(Oc2ccnc3cc(OCC4(N)CC4)c4c(c23)OCCO4)c(F)c1", "property-name": "IC50", "result": "≤ 50 nM"}
{"mol": "COc1cc2nccc(Oc3c(F)cc(NC(=O)c4cnccc4OC)cc3F)c2cn1", "property-name": "IC50", "result": "≤ 100 nM"}
{"mol": "CCc1ccc2nnc(Cc3c(F)cc4ncc(-c5cnn(C6CN(CC)C6)c5)cc4c3F)n2n1", "property-name": "IC50", "result": "< 100 nM"}
{"mol": "Clc1ccc(Cl)c(CN2CCNc3ncc(-c4ccc(N5CCCC5)nc4)cc32)c1", "property-name": "IC50", "result": "> 100000 nM"}
{"mol": "O=C1NC(=O)[C@@H](c2cn3c4c(cccc24)[C@@H](O)CC3)[C@@H]1c1c[nH]c2ccccc12", "property-name": "IC50", "result": "2000 nM"}
{"mol": "CCOC(=O)Nc1cccc(Cn2nc(-c3cccc(CNC(=O)CN(C)C)c3)ccc2=O)c1", "property-name": "IC50", "result": "10 to 1000 nM"}
